Sourced from patent US20240400718A1

biological target: S#067: CAR with VL-L1-VH scFv, Human 2nd-generation (4-1BB)_hIL7_hCCL19_HSVtk; test: flow cytometry on CAR-T cells; PE-labeled secondary antibody; PE-positive cells / total cells
Consider the following binders; for each one, report its Reactivity (%).
Report the figure along with its unit, number first.

3E7-C1 (antibody, V domains shown) VH: QVQMKESGPGLVQPSETLSLTCTVSGFSLTSYGVSWVRQPSGKGPEWMGRLWNDGDTAYNSALKSRLSISRDTSKNQVFLKMNSLQTDDTGTYYCTTMNGYKDYWGQGVMVTVSS VL: TSYELIQPPSASVTLGNTVSLTCVGDELPKRYAYWYQQKPDQSIVRVIYEDSKRPSGISDRFSGSSSGTTATLTIRDAQAEDEADYYCHSTYSDDKLRIFGGGTKLTVLG :: 41%
2D12-B12 (antibody, V domains shown) VH: EVKLVESGGGLVQPGRSLKLSCAASGFNFNDYWMGWVRQAPGKGLEWIGEIKKDSSIINYIPSLKDKFTISRDNAQNTLYLQMSKLGSEDTAIYYCARGVEYYGYHYWGQGTLVTVSS VL: DIVMTQSPSSLAVSAGETVTINCKSSQSLLYSGNQKNYLAWYQQKPGQSPKLLIYWASTRHSGVPARFIGSGSGSDFTLTISSVQAEDLAIYCCQQYYDIPYTFGAGTKLELK :: 34.9%

## Task Find the recorded Reactivity (%) belonging to 3A4-A10-7 (antibody, V domains shown) VH: QVQLQQSGAALVKPGASVKMSCKASGYTFTDCWVSWVKQSHGKSLEWIGEIHPNSGTTNFNEKFKGKATLTVDKSTSTAYMELSRLTSEDSAIYYCTRAYGGYPFDYWGQGVMVTVSS VL: ADLVLTQPKSVSTSLESTVKLSCKLNSGNIGRYYMHWYQQHEGRSPTNMIYRDDKRPDGVPDRFSGSIDSSSNSAFLTINNVQTEDEAIYFCHSYDSSINIFGGGTKLTVLG and report it.
## Result 22.3%
